- Assay Overview: Metabolic stability in liver microsomes, cytosol, hepatocytes
- Format: in vitro ADME
- Condition Description: Gottingen, minipig, liver microsomes, Microsomes
Quantity Kind: CLint scaled at 10 μM

Record OC[C@@H](O)[C@@H](O)[C@@H](O)CO [ribitol, (2R,3s,4S)-Pentane-1,2,3,4,5-pentol] , field CLint scaled at 10 μM: < 5.56 mL/min/kg

----------
- Assay Overview: 28-day repeat-dose oral toxicokinetics
- Format: in vivo, CD-1 mouse
- Condition Description: both sexes, CD-1, mouse, plasma, po, 0.5 g/kg, 0.5 g/kg/dose BID, Day 28, Mean of sexes
Quantity Kind: Cmax (µg/mL)
# output: bare number, implied unit µg/mL

Record OC[C@@H](O)[C@@H](O)[C@@H](O)CO [ribitol, (2R,3s,4S)-Pentane-1,2,3,4,5-pentol] , field Cmax: 140
